Target: hGLP-1R (Homo sapiens, UniProt P43220)
Sequence (P43220 24-463): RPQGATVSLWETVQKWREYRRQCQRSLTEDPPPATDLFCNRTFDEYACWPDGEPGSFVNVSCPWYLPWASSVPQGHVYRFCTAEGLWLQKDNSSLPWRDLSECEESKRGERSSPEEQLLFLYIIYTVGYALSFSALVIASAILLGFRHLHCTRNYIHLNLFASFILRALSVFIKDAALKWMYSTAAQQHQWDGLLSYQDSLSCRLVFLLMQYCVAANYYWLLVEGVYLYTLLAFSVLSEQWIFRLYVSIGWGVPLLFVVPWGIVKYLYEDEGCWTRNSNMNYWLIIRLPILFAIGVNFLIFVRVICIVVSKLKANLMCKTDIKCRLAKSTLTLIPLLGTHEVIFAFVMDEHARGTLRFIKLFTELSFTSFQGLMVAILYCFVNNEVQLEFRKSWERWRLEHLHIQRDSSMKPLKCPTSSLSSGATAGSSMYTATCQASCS
Assay: cell-based or functional assay
Non-standard residues stand in square brackets, D forms with d. No end group written: not given here. αMePhe(2-F) = C[C@](N)(Cc1ccccc1F)C(=O)O; Aib = CC(C)(N)C(=O)O
# Relative cAMP EC50 annotations
For clarity, give the value followed by its unit.

Take a look at these entries with their results.
>>> measured("YXQGTXTSDXXILLDXKAQXXFIEYLIEGGPSSGEPPPEGEEE (Lys acylated (γ-Glu)2-C18 diacid; non-natural residues; C-terminal amide; synthetic construct; SITE 2: note = 2-Aminoisobutyric Acid; SITE 6: note = alpha-methyl-2-fluoro-L-phenylalanine; SITE 10: note = 3-(4-Pyridyl)-L-alanine; SITE 11: note = alpha-methyl-L-serine; SITE 16: note = L-ornithine; SITE 17: note = Lysine is chemically modified through conjugation of the epsi) [Example 606]")
"0.786 nM"
>>> measured("YXQGTFTSDXXIXLDXKAQXQFIQXLIEXGPSSGAPPPSGGGE (not fully specified; non-natural residues (Aib, 4Pal, αMeS, Orn, Me4Pal); lipidated Lys; C-amide; synthetic construct; SITE 2: note = 2-Aminoisobutyric Acid; SITE 10: note = 3-(4-Pyridyl)-L-alanine; SITE 11: note = alpha-methyl-L-serine; SITE 13: note = alpha-methyl-leucine; SITE 16: note = L-ornithine; SITE 17: note = Lysine is chemically modified through conjugation of the epsilon-amino group) [Example 1136]")
"0.453 nM"
>>> measured("YXQGTFTSDFSKXLDKKAQXAFIEWLLEGGPSSGAPPPSEG (Aib, αMeL; K acylated; C-terminal amide; synthetic construct; SITE 2: note = 2-Aminoisobutyric Acid; SITE 13: note = alpha-methyl-leucine; SITE 17: note = Lysine is chemically modified through conjugation of the epsilon-amino group of the Lysine side chain with (2-[2-(2-Amino-ethoxy)-ethoxy]-acetyl)-(gamma-Glu)-CO-(CH2) 18-CO2H; SITE 20: n) [Example 37]")
"1.66 nM"
>>> measured("YXQGTFTSDFSKXLDKKAQXAFIEYLIEGGESSGAPPPSGS (Lys acylated with AEEA-γGlu-C18 diacid; non-natural residues; C-amide; synthetic construct; SITE 2: note = 2-Aminoisobutyric Acid; SITE 13: note = alpha-methyl-leucine; SITE 17: note = Lysine is chemically modified through conjugation of the epsilon-amino group of the Lysine side chain with (2-[2-(2-Amino-ethoxy)-ethoxy]-acetyl)-(gamma-Glu)-CO-(CH2) 16-CO2H; SITE 20: n) [Example 215]")
"0.803 nM"

Inquiry: Answer with the recorded Relative cAMP EC50 of YXQGTFTSDFSXXLDKKAQXAFIEYLLEGGPSSGAPPPGGS (synthetic construct; SITE 2: note = 2-Aminoisobutyric Acid; SITE 12: note = L-ornithine; SITE 13: note = alpha-methyl-leucine; SITE 17: note = Lysine is chemically modified through conjugation of the epsilon-amino group of the Lysine side chain with (2-[2-(2-Amino-ethoxy)-ethoxy]-acetyl)-(gamma-Glu)) [Example 62] only.
Reply text: 2.72 nM

Inquiry: Answer with the recorded Relative cAMP EC50 of YXQGTFTSDXSQXLDXKAQXAFIQXLLEGGPSSGAPPPSGSEEE (Aib, 4Pal, Orn, Me4Pal, αMeY; acylated lysine; amide; synthetic construct; SITE 2: note = 2-Aminoisobutyric Acid; SITE 10: note = 3-(4-Pyridyl)-L-alanine; SITE 13: note = alpha-methyl-leucine; SITE 16: note = L-ornithine; SITE 17: note = Lysine is chemically modified through conjugation of the epsilon-amino group of the Lysine side chain with D-Glutami) [Example 1083] only.
Reply text: 7.76 nM

Inquiry: Answer with the recorded Relative cAMP EC50 of YXQGTFTSDFSXXLDKKAQXAFIEWLLEGGPSSGAPPPEGS (synthetic construct; SITE 2: note = 2-Aminoisobutyric Acid; SITE 12: note = L-ornithine; SITE 13: note = alpha-methyl-leucine; SITE 17: note = Lysine is chemically modified through conjugation of the epsilon-amino group of the Lysine side chain with (2-[2-(2-Amino-ethoxy)-ethoxy]-acetyl)-(gamma-Glu)) [Example 121] only.
Reply text: 2.38 nM

Inquiry: Answer with the recorded Relative cAMP EC50 of YXQGTXTSDXSILLDKKAQXAFIEYLEEGGPSSGAPPPSGTEE (non-natural residues (Aib, αMeF(2F), 4Pal); lipidated Lys; C-amide; synthetic construct; SITE 2: note = 2-Aminoisobutyric Acid; SITE 6: note = alpha-methyl-2-fluoro-L-phenylalanine; SITE 10: note = 3-(4-Pyridyl)-L-alanine; SITE 17: note = Lysine is chemically modified through conjugation of the epsilon-amino group of the Lysine side chain with (gamma-Glu)2-CO-(CH2)1) [Example 609] only.
Reply text: 1.07 nM

Inquiry: Answer with the recorded Relative cAMP EC50 of Y[Aib]QGT[αMePhe(2-F)]TSDYSKLLDEIAQKAFIEYLLEGGPSSGEPPPSEG-NH2 (not fully specified (residue 20)) [Example 303] only.
Reply text: 1.13 nM

Inquiry: Answer with the recorded Relative cAMP EC50 of YXQGTFTSDXSQXLDXKAQXAFIEXLLAGGPSSGAPPPSGSEEE (Lys acylated γGlu-C18 diacid; non-natural residues; C-amide; synthetic construct; SITE 2: note = 2-Aminoisobutyric Acid; SITE 10: note = 3-(4-Pyridyl)-L-alanine; SITE 13: note = alpha-methyl-leucine; SITE 16: note = L-ornithine; SITE 17: note = Lysine is chemically modified through conjugation of the epsilon-amino group of the Lysine side chain with D-Glutami) [Example 1082] only.
Reply text: 4.13 nM

Inquiry: Answer with the recorded Relative cAMP EC50 of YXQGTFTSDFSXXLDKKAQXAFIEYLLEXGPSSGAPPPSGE (synthetic construct; SITE 2: note = 2-Aminoisobutyric Acid; SITE 12: note = L-ornithine; SITE 13: note = alpha-methyl-leucine; SITE 17: note = Lysine is chemically modified through conjugation of the epsilon-amino group of the Lysine side chain with (2-[2-(2-Amino-ethoxy)-ethoxy]-acetyl)2-(gamma-Glu)) [Example 111] only.
Reply text: 5.06 nM

Inquiry: Answer with the recorded Relative cAMP EC50 of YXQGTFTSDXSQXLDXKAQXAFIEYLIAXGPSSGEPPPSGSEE (non-natural residues, C-terminal amide, acylated Lys with fatty diacid; synthetic construct; SITE 2: note = 2-Aminoisobutyric Acid; SITE 10: note = 3-(4-Pyridyl)-L-alanine; SITE 13: note = alpha-methyl-leucine; SITE 16: note = L-ornithine; SITE 17: note = Lysine is chemically modified through conjugation of the epsilon-amino group of the Lysine side chain with (2-[2-(2-) [Example 1095] only.
Reply text: 1.17 nM

Values from patent US20240270821A1
